- TARGET SYSTEM: endopeptidase 24-16 (Homo sapiens, UniProt Q9BYT8)
- Sequence (Q9BYT8 38-704): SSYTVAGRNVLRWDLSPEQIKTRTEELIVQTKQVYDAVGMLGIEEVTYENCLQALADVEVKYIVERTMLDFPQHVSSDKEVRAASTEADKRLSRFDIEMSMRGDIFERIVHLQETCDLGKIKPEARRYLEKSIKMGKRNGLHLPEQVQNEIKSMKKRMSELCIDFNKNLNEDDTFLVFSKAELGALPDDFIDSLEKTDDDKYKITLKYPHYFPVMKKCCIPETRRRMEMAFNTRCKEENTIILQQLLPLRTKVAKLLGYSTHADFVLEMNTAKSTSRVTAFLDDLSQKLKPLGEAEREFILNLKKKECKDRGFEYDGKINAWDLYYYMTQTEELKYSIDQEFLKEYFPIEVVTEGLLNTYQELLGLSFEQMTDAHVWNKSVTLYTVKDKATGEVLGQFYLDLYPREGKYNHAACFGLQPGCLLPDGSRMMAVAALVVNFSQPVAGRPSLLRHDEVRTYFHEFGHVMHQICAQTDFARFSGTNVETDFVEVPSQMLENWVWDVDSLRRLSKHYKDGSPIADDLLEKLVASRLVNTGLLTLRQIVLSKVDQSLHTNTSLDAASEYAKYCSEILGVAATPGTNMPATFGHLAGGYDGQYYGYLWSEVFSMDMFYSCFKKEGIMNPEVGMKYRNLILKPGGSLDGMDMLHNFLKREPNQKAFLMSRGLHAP
- METHOD SUMMARY: Inhibition of neurotensin degradation by purified endopeptidase 24-16 (HPLC), inhibition constant Ki
- TEST CONDITIONS: neurotensin 20 μmole/l, 1 hour at 30° C., tris-HCl pH 7.5
MEASURED PROPERTY: pKi
One number for each entry, as −log10 of the molar value.

{"columns": ["MOLECULE", "TARGET SYSTEM", "pKi"],
 "data": [
  ["CC(CP(=O)(O)C(Cc1ccccc1)NC(=O)OCc1ccccc1)C(=O)N[C@@H](CCCNC(=N)N)C(=O)N[C@@H](Cc1ccccc1)C(=O)O (mixture of isomers) [compound 43, Z--Phe .PSI. (PO2 CH2)Ala--Arg--Phe]", "endopeptidase 24-16 (Homo sapiens, UniProt Q9BYT8)", 6.28]
]}

// batch mode: one pKi value per listed entry
1. C[C@H](NC(=O)[C@H](CCCNC(=N)N)NC(=O)CCP(=O)(O)C(Cc1ccccc1)NC(=O)OCc1ccccc1)C(=O)O (mixture of isomers) [compound 3, Z--Phe .PSI. (PO2 CH2)Gly--Arg--Ala]
2. CC(C)[C@H](NC(=O)[C@H](CCCNC(=N)N)NC(=O)CCP(=O)(O)C(Cc1ccccc1)NC(=O)OCc1ccccc1)C(=O)O (mixture of isomers) [compound 8, Z--Phe .PSI. (PO2 CH2)Gly--Arg--Val]
3. C[C@@H](O)[C@H](NC(=O)[C@H](CCCNC(=N)N)NC(=O)CCP(=O)(O)C(Cc1ccccc1)NC(=O)OCc1ccccc1)C(=O)O (mixture of isomers) [compound 17, Z--Phe .PSI. (PO2 CH2)Gly--Arg--Thr]

1. 6.70
2. 5.95
3. 5.44

What value of pKi on endopeptidase 24-16 (Homo sapiens, UniProt Q9BYT8) does CC(C)C[C@H](NC(=O)[C@H](CCCNC(=N)N)NC(=O)CCP(=O)(O)C(Cc1ccccc1)NC(=O)OCc1ccccc1)C(=O)O (mixture of isomers) [compound 6, Z--Phe .PSI. (PO2 CH2)Gly--Arg--Leu] have?
6.07
